The following compounds are listed with their measured log10(GI50) values.
# System: SK-BR-3
# EXPERIMENTAL_PROTOCOL: Inhibition of cells growth by colorimetric assay (SRB), SK-BR-3
# Type: cell-based
# CONDITION_NOTES: Homo sapiens, SK-BR-3, 48 h, SK-BR3; SRB, 48 hours exposure; read-out: SK-BR3 GI50
# Method: 2°.—Inhibition of Cells Growth by Colorimetric Assay. A colorimetric type of assay, using sulforhodamine B (SRB) reaction has been adapted for a quantitative measurement of cell growth and viability [following the technique described by Philip Skehan, et al. (1990), New colorimetric cytotoxicity assay for anticancer drug screening, J. Natl. Cancer Inst., 82:1107-1112] […] The values for mean+/−SD of data from triplicate wells are calculated. […]
MEASURED_ATTRIBUTE: log10(GI50) (log10 of the value in nM)

C=COC(=O)N1CCc2cc(O)c(OC)cc2[C@@]12CS[C@@H]1c3c(OC(C)=O)c(C)c4c(c3[C@H](COC2=O)N2C1[C@H]1c3c(cc(C)c(OC)c3O)C[C@@H]([C@@H]2O)N1C)OCO4 (some centres unmarked) : 1.47
C=COC(=O)Oc1cc2c(cc1OC)[C@@]1(CS[C@@H]3c4c(OC(C)=O)c(C)c5c(c4[C@H](COC1=O)N1C3[C@H]3c4c(cc(C)c(OC)c4O)C[C@@H]([C@@H]1O)N3C)OCO5)N(C(=O)OC=C)CC2 (some centres unmarked) : 1.61
COC1=C(C)C(=O)C2=C(C1=O)[C@@H]1C3[C@@H]4SC[C@]5(NCCc6cc(O)c(OC)cc65)C(=O)OC[C@@H](c5c6c(c(C)c(OC(C)=O)c54)OCO6)N3[C@@H](O)[C@H](C2)N1C (some centres unmarked) : 0.42
COc1cc2c(cc1OC)[C@@]1(CS[C@@H]3c4c(OC(C)=O)c(C)c5c(c4[C@H](COC1=O)N1C3[C@H]3c4c(cc(C)c(OC)c4OC)C[C@@H]([C@@H]1O)N3C)OCO5)NCC2 (some centres unmarked) : 1.22
COc1cc2c(cc1O)CCN(C)[C@]21CS[C@@H]2c3c(OC(C)=O)c(C)c4c(c3[C@H](COC1=O)N1C2[C@H]2c3c(cc(C)c(OC)c3O)C[C@@H]([C@@H]1O)N2C)OCO4 (some centres unmarked) : -0.35

---

Parameter Toxicity Data Skeletal, tested on Skeletal, listed per item.
MEASURED_ATTRIBUTE: Toxicity Data Skeletal

COc1cc2c(cc1OC(=O)OC(C)(C)C)CCN[C@]21CS[C@@H]2c3c(OC(C)=O)c(C)c4c(c3[C@H](COC1=O)N1C2[C@H]2c3c(cc(C)c(OC)c3OC(=O)OC(C)(C)C)C[C@@H]([C@@H]1O)N2C)OCO4 (some centres unmarked) : 3.88E-08
COc1cc2c(cc1OC(=O)OC(C)(C)C)CCN[C@]21CS[C@@H]2c3c(OC(=O)OC(C)(C)C)c(C)c4c(c3[C@H](COC1=O)N1C2[C@H]2c3c(cc(C)c(OC)c3O)C[C@@H]([C@@H]1O)N2C)OCO4 (some centres unmarked) : 2.49E-06
COc1cc2c(cc1O)CCN(C)[C@]21CS[C@@H]2c3c(OC(C)=O)c(C)c4c(c3[C@H](COC1=O)N1C2[C@@H]2N[C@@H](Cc3cc(C)c(OC)c(O)c32)[C@@H]1O)OCO4 (some centres unmarked) : 3.37E-12
COc1cc2c(cc1OC(=O)/C=C/c1ccccc1)CCN[C@]21CS[C@@H]2c3c(OC(C)=O)c(C)c4c(c3[C@H](COC1=O)N1C2[C@H]2c3c(cc(C)c(OC)c3O)C[C@@H]([C@@H]1O)N2C)OCO4 (some centres unmarked) : 1.47E-08
COc1cc2c(cc1O)CCN[C@]21CS[C@@H]2c3c(OC(=O)/C=C/c4ccccc4)c(C)c4c(c3[C@H](COC1=O)N1C2[C@H]2c3c(cc(C)c(OC)c3O)C[C@@H]([C@@H]1O)N2C)OCO4 (some centres unmarked) : 1.65E-08
COc1cc2c(cc1OC(=O)Cc1cc(=O)oc3cc(N(C)C)ccc13)CCN[C@]21CS[C@@H]2c3c(OC(C)=O)c(C)c4c(c3[C@H](COC1=O)N1C2[C@H]2c3c(cc(C)c(OC)c3OC(=O)Cc3cc(=O)oc5cc(N(C)C)ccc35)C[C@@H]([C@@H]1O)N2C)OCO4 (some centres unmarked) [Compound 78] : 1.96E-08
COC1=C(C)C(=O)C2=C(C1=O)[C@@H]1C3[C@@H]4SC[C@]5(NCCc6cc(O)c(OC)cc65)C(=O)OC[C@@H](c5c6c(c(C)c(OC(C)=O)c54)OCO6)N3[C@@H](O)[C@H](C2)N1C (some centres unmarked) : 3.40E-09
C=CCOC(=O)Oc1cc2c(cc1OC)[C@@]1(CS[C@@H]3c4c(OC(C)=O)c(C)c5c(c4[C@H](COC1=O)N1C3[C@H]3c4c(cc(C)c(OC)c4O)C[C@@H]([C@@H]1O)N3C)OCO5)NCC2 (some centres unmarked) : 1.66E-09
